All figures here come from paper PMC7913621.

- Test system: kidney HEK 293T
- experimental-details: MTT cell viability assay, HEK 293T
- Assay type: cell-based, human
- reported-conditions: Homo sapiens, 72 h, median (95% Confidence Intervals)
quantity-name: IC50

[[record]]
molecule = "CN1CC(=O)N(Cc2cc3c(cc2Br)OCO3)[C@@H](Cc2c[nH]c3ccccc23)C1=O [Compound 7b]"
observed_measurement = "13.1 µM"

[[record]]
molecule = "CN1CC(=O)N(Cc2cc3c(cc2Br)OCO3)[C@H](Cc2c[nH]c3ccccc23)C1=O [Compound 7a]"
observed_measurement = "12.3 µM"

[[record]]
molecule = "CN1CC(=O)N2[C@H](c3ccc4c(c3)OCO4)c3[nH]c4ccccc4c3C[C@@H]2C1=O [Tadalafil, reference compound]"
observed_measurement = "31 µM"

[[record]]
molecule = "CN1CC(=O)N(Cc2ccc3c(c2)OCO3)[C@@H](Cc2c[nH]c3ccccc23)C1=O [Compound 6b]"
observed_measurement = "13 µM"

[[record]]
molecule = "CN1CC(=O)N(Cc2ccc3c(c2)OCO3)[C@H](Cc2c[nH]c3ccccc23)C1=O [Compound 6a]"
observed_measurement = "10.5 µM"

